assay: NCI Yeast Anticancer Drug Screen. Data for the rad50 strain (AID 155); conditions: S. cerevisiae rad50 strain growth inhibition; at 50.0 µM
Compounds without any hit were thinned out: in the full panel of roughly 79,000, 15% have a hit. The source made the active and inactive calls. No stated cut-off is given here; in the data, active means growth inhibition above about 70%; inactive means the rest.
Tick one outcome: active, inactive

Worked set:
>>> print(df.to_string())
                                   compound     group
0       Oc1[nH]c2ccccc2c1N=NC(=S)NCc1ccccn1    active
1  CN(C)CCN(C)N=Nc1c(-c2cccs2)n[nH]c1C(F)(F)F    active
2  CC1OC(c2ccc3c(c2)OCO3)OC1C (configuration not stated)  inactive
3                       O=C(O)C1CCCCC1.[Ag]    active
4    CCCCCCCCCCCCCCCCCCSSCCCCCCCCCCCCCCCCCC  inactive

QUERY: What was the test verdict on Clc1ccc(CN2COc3c(ccc4cccnc34)C2)cc1 ?
RESULT: active

QUERY: What was the test verdict on CCC(C(=O)CCN(C)C)(c1ccccc1)c1ccccc1 ?
RESULT: active

---

experiment: NCI Yeast Anticancer Drug Screen. Data for the cln2 rad14 strain (AID 165); conditions: S. cerevisiae cln2 rad14 strain, at 5.0 µM (retest, dose inferred, filed as 0.5)
The panel holds about 79,000 compounds, 15% with a hit somewhere; the sample as a whole holds those more often. The source made the active and inactive calls. Rule as the data show it: active = growth inhibition above about 70%; inactive = the rest. Where a SMILES comes first, the peptide text is derived from it. The star is where a group is joined. Cbz = O=C(OCc1ccccc1)*; CH2Cl = ClC*
Tick one outcome: active, inactive

Compound	Group
N#CC(c1ccc(Cl)cc1)c1ccc([N+](=O)[O-])cc1 (stereo unspecified)	inactive

QUERY: What was the test verdict on O=C(CCCN1CCN2Cc3[nH]c4ccccc4c3CC2C1)c1ccc(F)cc1 (stereo unspecified) ?
RESULT: inactive

QUERY: What was the test verdict on C=Cc1nc(N)nc(-c2ccc(C)cc2)n1 ?
RESULT: inactive

QUERY: What was the test verdict on C=CCOCC(C)OC(=O)C(C)C (stereo unspecified) ?
RESULT: inactive

QUERY: What was the test verdict on Cc1c2ccnc(-c3ccc(F)cc3)c2cc2c1[nH]c1ccccc12 ?
RESULT: inactive

QUERY: What was the test verdict on C/C(=N\NC(N)=S)c1ccc(Oc2ccccc2)cc1 ?
RESULT: inactive

QUERY: What was the test verdict on Cc1ccc(S(=O)(=O)N/N=C/c2oc(-c3cccc([N+](=O)[O-])c3)c(-c3cccc([N+](=O)[O-])c3)c2[N+](=O)[O-])cc1 ?
RESULT: inactive

QUERY: What was the test verdict on CC(C)CC(NC(=O)OCc1ccccc1)C(=O)NC(Cc1ccccc1)C(=O)CCl (stereo not drawn) (Cbz-Leu-Phe-CH2Cl; configuration not given here) ?
RESULT: inactive

QUERY: What was the test verdict on O=C1C(C=NC(=S)c2ccccc2)=C(O)c2ccccc21 ?
RESULT: inactive

QUERY: What was the test verdict on O=C1CN(c2cccc(Cl)c2)C(=O)CN1/N=C/c1ccc[nH]1 ?
RESULT: inactive

---

experiment: NCI Yeast Anticancer Drug Screen. Data for the mlh1 rad18 strain (AID 175); details: S. cerevisiae mlh1 rad18 strain growth inhibition; at 50.0 µM
Compounds without any hit were thinned out: in the full panel of roughly 79,000, 15% have a hit. The source made the active and inactive calls. Cut-off read from the data, not from the text of the source: active = growth inhibition above about 70%; inactive = the rest.
Tick one outcome: active, inactive

>>> print(df.to_string())
                           compound     group
0  C[N+](C)(C)CCN(Cc1cccs1)c1ccccn1  inactive

QUERY: What was the test verdict on CCCCCc1[nH]nc(C(=O)OC)c1N=NN1CCOCC1 ?
RESULT: active

QUERY: What was the test verdict on CC(C)N(CCOc1ccc(/C=C/c2ccccc2)cc1)C(C)C ?
RESULT: inactive

QUERY: What was the test verdict on Cc1cc2nc3ccc(N(C)C)cc3nc2cc1N ?
RESULT: active

QUERY: What was the test verdict on Nc1ncc2ccccc2c1-c1ccc(NC(=O)CCCl)cc1 ?
RESULT: inactive

QUERY: What was the test verdict on CCC/C(=N\O)S(=O)(=O)c1ccc(NN=O)nc1 ?
RESULT: inactive

---

assay: NCI Yeast Anticancer Drug Screen. Data for the mlh1 rad18 strain (AID 175); settings: S. cerevisiae mlh1 rad18 strain growth inhibition; at 50.0 µM (retest, dose inferred, filed as 5.0)
The panel holds about 79,000 compounds, 15% with a hit somewhere; the sample as a whole holds those more often. Activity calls are given as the source filed them. Cut-off read from the data, not from the text of the source: active = growth inhibition above about 70%; inactive = the rest.
Tick one outcome: True for active, False for inactive

                     molecule  group
0  O=C1CCCC/C1=C/c1ccc(Cl)cc1  False

QUERY: What was the test verdict on Cc1cc(O)ccc1C1(c2ccc(F)cc2)OC(=O)c2ccccc21 (configuration not stated) ?
RESULT: True

QUERY: What was the test verdict on C=CCSc1nc2ccccc2c(=O)n1Cc1ccco1 ?
RESULT: False

QUERY: What was the test verdict on Cc1ccc(NC(=S)SCc2ccco2)cc1Cl ?
RESULT: True

---

assay: NCI Yeast Anticancer Drug Screen. Data for the sgs1 mgt1 strain (AID 161); settings: S. cerevisiae sgs1 mgt1 strain, at 50.0 µM, active compounds read high
This is part of a sample that, as a whole, favours compounds with a hit. Of some 79,000 tested, about 15% had one in any assay.
If the reported growth inhibition equals or exceeds 80%, assign Satisfied. If not, assign Not satisfied.

Worked set:
In [3]: df
Out[3]:
                                   compound          group
0        ICCCCSc1cc(-c2ccccc2)[o+]c2ccccc12  Not satisfied
1  CC1=CC2N(C=C1)C(c1ccccc1)=NON2c1cc(C)ccn1 (centres undefined)  Not satisfied
2  CCCCCCCCCCCC(=O)Oc1c(Cl)c(Cl)c(C#N)c(Cl)c1Cl  Not satisfied
3                  O=c1ccc2nc3ccccc3ccc-2c1  Not satisfied
4         CC(=O)Nc1cccc2c1ccc1ccc3ccccc3c12  Not satisfied
5  COc1ccc(C2c3cc4c(cc3OC(O)(CO)C2C(=O)O)OCO4)cc1 (centres undefined) (tested in a mixture with another compound)  Not satisfied
6                  CCCCCc1cccc(CC(=O)OCC)n1  Not satisfied
7                   CC(=O)Nc1ccc(O)c(=O)cc1      Satisfied
8  COc1ccc2c(c1)c(=O)c1c(NCCN(C)C)ccc3nnn2c31  Not satisfied
9        CSC(=Nc1ccccc1)NC(=O)Nc1ccc(Cl)cc1  Not satisfied

QUERY: Determine whether measured growth inhibition meets or exceeds 80% for CCCCCCCCCCCC#CCCCCC(=O)O
RESULT: Satisfied

QUERY: Determine whether measured growth inhibition meets or exceeds 80% for CC1(C)S[C@@H]2[C@H](N3C(=O)c4ccccc4C3=O)CN2[C@H]1NC(=O)N[C@@H]1N2C[C@@H](N3C(=O)c4ccccc4C3=O)[C@H]2SC1(C)C
RESULT: Not satisfied

QUERY: Determine whether measured growth inhibition meets or exceeds 80% for FC(F)(F)c1ccc(Nc2ccc(C(F)(F)F)cc2)cc1
RESULT: Satisfied

QUERY: Determine whether measured growth inhibition meets or exceeds 80% for CN[C@@H](Cc1cccc2ccccc12)C(=O)N[C@@H](CC(C)C)B(O)O
RESULT: Not satisfied

QUERY: Determine whether measured growth inhibition meets or exceeds 80% for CC[O-].CC[O-].[O-]c1ccccc1C=Nc1ccccc1.[O-]c1ccccc1C=Nc1ccccc1.[Ti+4]
RESULT: Not satisfied

QUERY: Determine whether measured growth inhibition meets or exceeds 80% for C=C1C(O)C2(O)OCC34C(CC5C(C)=CC(=O)C(O)C5(C)C23)OC(=O)C(OC(=O)C/C=C/CCCCCCCC)C14 (centres undefined)
RESULT: Satisfied

QUERY: Determine whether measured growth inhibition meets or exceeds 80% for CC(C)/C(Cl)=N\OC(=O)Nc1cccc(F)c1
RESULT: Satisfied

QUERY: Determine whether measured growth inhibition meets or exceeds 80% for CC(=O)O[C@H]1[C@@H]2CC(C)(C)CC2=C(C=O)C2(C=O)CC12C (some centres undefined)
RESULT: Satisfied

QUERY: Determine whether measured growth inhibition meets or exceeds 80% for CCCCC#CCCOC(=O)C#CCCCC
RESULT: Not satisfied

QUERY: Determine whether measured growth inhibition meets or exceeds 80% for c1ccc2c(c1)ccc1c[n+]3c4ccccc4ccc3n12
RESULT: Not satisfied

QUERY: Determine whether measured growth inhibition meets or exceeds 80% for CC(C)c1ccc(C(C)C)c(O)c1O
RESULT: Satisfied

QUERY: Determine whether measured growth inhibition meets or exceeds 80% for Cc1cn(C2CC(Br)C(COC(c3ccccc3)(c3ccccc3)c3ccccc3)O2)c(=O)[nH]c1=O (centres undefined)
RESULT: Satisfied
